Data credit: the nanobody polyreactivity screen of Harvey et al. (2022)

Experiment: yeast display, Sf9 membrane polyspecificity reagent, FACS + sequencing; frameworks hold sequencing errors
MEASURED_ENDPOINT: polyreactivity (PSR sort gate)

* QVQLVESGGGLVQAGGSLRLSCAPSGFTFGDYAMGWYRQSPGTESELDAAISWSGGSTYYADSVKGRFTISRDNAKTTVYLQMNSLKPEDTAVYYCAAVDSATIEDDYWGQGTQVTVSS | high polyreactivity
* QVQLVESGGGLVQAGGSLRLSCAASGRIFRDYVMGWYRQAPGKERELVAAITQRGGSTYYADSVKGRFTISRDNAKNTVYLQLNSLKPEDTAVYYCNARWYRYGTGGVGYGGYDYWGQGTQVTVSS | low polyreactivity
* QVQLVESGGGLVQAGGSLRLSCAASGRTFRAYVMGWYRQAPGKERELVAAISGRGGSTYYADSVKGRFTSSRDNAKNTVYLQMNSLKPEDTAVYYCNAVQLSQRPHDYWGQGTQVTVSS | high polyreactivity
* QVQLVESGGGLVQAGGSLRLSCAASGSTFPHYAMGWYRQAPGKERELVAAISWSGSSTYYADSVKGRFTISRDNAKNTVYLQMNSLKPEDTAVYYCNILPRRAPQFTYDYWGQGTQVTVSS | high polyreactivity
* QVHLVESGGGLVQAGGSLRLSCADSGSTFTSYAMGWYRQAPGKERDLVAAINYSGGSTYYADSVKGRFTISRDNAKNTVYLQMNSLKPEDTAVYYCAADGYIRQYVTYYYWGKGTQVTVSS | low polyreactivity

---

Test: yeast display, Sf9 membrane polyspecificity reagent, FACS + sequencing; frameworks hold sequencing errors
MEASURED_ENDPOINT: polyreactivity (PSR sort gate)

- QVQLVESGGGLVQAGGSLRLSCAASGRTFAGYAMGWYRQAPGKERELVATISRNGGSTYYADSVKGRFTISRDNAKNTVYLQMNSLKPEDTAVYYCAADRRGVVRFSRYRGIYDYWGQGTQVTVSS: high polyreactivity
- QVQLVESGGGIVQAGGSLRLSCAASGSNFYANPMGWYRQAPGKERELVAAITRSGAGTYYADSVKGRFTISRDNAKNTVYLQMNSLKPEDTAVYDCAKRTKTPTGYDWGGYDYWGQGTQVTVSS: high polyreactivity
- QVQLVESGGGLVQAGGSLRLSCAASGRIFPSYAMGSSRQAPGKEREFVAAITWSGTDTYYADSVQGRFTISRDNAKNTVYLQMTSLKPEDTAVYYCAAEEYVEVDTTAYDYWGQGTQVTVSS: low polyreactivity
- QVHLVESGGALVQAGGSLRLSCAASGFTFHTYASRLYRQAPGKEREFVAAISYSGGNTYYADSVKGHFTISRDNAKKTVYLHMNSLKPEDTAVYYCAAQYYYRYYWGPGTQVTVSS: high polyreactivity
- QVQLVESGVGLVQAGVSLRLSCAASGIILTEYAMGCYRQAHGKERELVAAINRVGSTNYADSVKGRFTISRDNAKNTVYLQMNSLNPEDTAVYYCAAGTYYNDYDYWGQGTQVTVSS: low polyreactivity

---

Experiment: yeast display, Sf9 membrane polyspecificity reagent, FACS + sequencing; frameworks hold sequencing errors
MEASURED_ENDPOINT: polyreactivity (PSR sort gate)

- QVQLVESGGGLVQAGGSLRLSCAASGSTFRQNTMGWYRQAPGKEREFVAAINYSGGSTNYADSVKGRFTISRDNAKNTVYLQMNSLKPEDTAVYYCAVRQYYYKRMGYWGQGTQVTVSS: high polyreactivity
- QVQLVESGGGLVQAGGSLRLSCAASGRILSSYAMGWNRQAPGKERELVAVISSGGNTYYADSVKGRFTISRDNAKNTVFLQMNSLKPEDTAVYYCNAARRGYLRRYYWGQGTQVNVSS: high polyreactivity
- QVQLVESGGGLVQAGGSLRLSCAASGLTYYYYAKGWYRQAPGKERDFVAAISRSGGTTYYADSVKGRFTISRDNAKNTDYLQMNSLKPEDTAVYYCNAQWWRYRPSQVIFDYWGQGTQVNVSS: high polyreactivity
- QVQLVESGGGLVQAGGSLRLSCAASGITFTGYAMGWYRQAPGKERELVAAITWSSGSTYYADSVKGRFTISRDNAKNTVYLQMNSLKPEDTAVYYCNTDYGRYLYYRYGYWGQGTQVTVSS: low polyreactivity
- QVQLVESGGGLVQAGGSLRLSCAASGSIFGTNGMGWYRQAPGKERELVAAITRRGGSTYADSVKGRFTISRDNAKNTVYLQMNSLKPEDTAVYYCAVDQGYVVRLAWIYGYWGQGTQVTVSS: low polyreactivity
